- System: MCF7 breast
- experiment.notes: NCI tumour cell line growth inhibition, 48 h
experimental.readout: TGI

compound: COc1ccc2[nH]cc(-c3nc(-c4c[nH]c5ncccc45)cs3)c2c1
experimental.readout: TGI
assay.value: > 100 µM

compound: Nc1nc2c(ncn2Cc2ccc(CO)cc2)c(=O)[nH]1
experimental.readout: TGI
assay.value: > 100 µM

## Task For the compound "N#Cc1c(-c2ccc(F)cc2)c(-c2ccc(F)cc2)nn(CCO)c1=O" , what TGI is on record?
## Result > 100 µM

---

- System: UO-31 renal
- experiment.notes: NCI tumour cell line growth inhibition, 48 h
experimental.readout: TGI

The following compounds have reported results that may help.
compound: Cc1ccc(/C=C/c2c(C(=O)/C=C/c3ccc(C(F)(F)F)cc3)c(C)nc3ccccc23)cc1
study.system: UO-31 renal
TGI: 2.17 µM
//
compound: CC(C)=C1C(=O)C[C@]2(C)C[C@H]3/C(=C(/C)CCC12)CC[C@@]3(C)O (stereo partly specified)
study.system: UO-31 renal
TGI: > 50 µM
//
compound: O=C1/C(=C/c2ccccc2)NC(=S)N1CN1CCOCC1
study.system: UO-31 renal
TGI: > 100 µM
//
compound: CCCCCCC[CH2][Sn]1([CH2]CCCCCCC)[O]C(=O)c2cccnc2[S]1
study.system: UO-31 renal
TGI: > 100 µM
//
compound: CN(C)c1c([O-])c(=[N+](C)C)c1=O
study.system: UO-31 renal
TGI: > 100 µM

## Task Give TGI (UO-31 renal) of the following compound: "CN(CCN(C)C(=S)NN)C(=S)NN"
## Result > 100 µM

## Task Give TGI (UO-31 renal) of the following compound: "CC(=O)Nc1ccc(-c2nc3cc(Cl)ccc3o2)cc1"
## Result > 50 µM

## Task Give TGI (UO-31 renal) of the following compound: C=CC(=O)N1CCC(C2CCNc3c(C(N)=O)c(-c4ccc(Oc5ccccc5)cc4)nn32)CC1 (stereo unspecified)
## Result 24.3 µM

## Task Give TGI (UO-31 renal) of the following compound: "CC(C)C1=C(Cc2ccccc2)C(=O)O/C1=C\c1cc(Cl)c(O)c(Cl)c1"
## Result 27.1 µM

## Task Give TGI (UO-31 renal) of the following compound: "Cn1cnc([N+](=O)[O-])c1S(=O)(=O)Oc1ccccc1"
## Result 3.47 µM

## Task Give TGI (UO-31 renal) of the following compound: CC(C)(C)c1cc(C(CO)OCCOCCO)cc(C(C)(C)C)c1O (stereo unspecified)
## Result > 100 µM

---

Here, each record is paired with measured TGI data.
- Test system: SNB-75 CNS
- experiment.notes: NCI tumour cell line growth inhibition, 48 h

## Task For the compound O=c1[nH]c(=O)n(C2CC(O)C(CO)O2)cc1CO (stereo not drawn) , what TGI is on record?
## Result > 100 µM

## Task For the compound "O=C(O)c1cccnc1" , what TGI is on record?
## Result > 100 µM

## Task For the compound "Ic1ccc(-n2nnnc2-c2cnoc2-c2ccccc2)cc1" , what TGI is on record?
## Result > 100 µM
